target: UniProt:Q96T88; assay: blockers of UHRF1 binding to methyl-oligo – biochemical, TR-FRET, human UHRF1, dose response, counter-screen for MBD2 inhibitor project, late-stage follow-up (AID 1053170); conditions: TR-FRET UHRF1-methylated DNA binding
Sequence (Q96T88 whole entry, looked up): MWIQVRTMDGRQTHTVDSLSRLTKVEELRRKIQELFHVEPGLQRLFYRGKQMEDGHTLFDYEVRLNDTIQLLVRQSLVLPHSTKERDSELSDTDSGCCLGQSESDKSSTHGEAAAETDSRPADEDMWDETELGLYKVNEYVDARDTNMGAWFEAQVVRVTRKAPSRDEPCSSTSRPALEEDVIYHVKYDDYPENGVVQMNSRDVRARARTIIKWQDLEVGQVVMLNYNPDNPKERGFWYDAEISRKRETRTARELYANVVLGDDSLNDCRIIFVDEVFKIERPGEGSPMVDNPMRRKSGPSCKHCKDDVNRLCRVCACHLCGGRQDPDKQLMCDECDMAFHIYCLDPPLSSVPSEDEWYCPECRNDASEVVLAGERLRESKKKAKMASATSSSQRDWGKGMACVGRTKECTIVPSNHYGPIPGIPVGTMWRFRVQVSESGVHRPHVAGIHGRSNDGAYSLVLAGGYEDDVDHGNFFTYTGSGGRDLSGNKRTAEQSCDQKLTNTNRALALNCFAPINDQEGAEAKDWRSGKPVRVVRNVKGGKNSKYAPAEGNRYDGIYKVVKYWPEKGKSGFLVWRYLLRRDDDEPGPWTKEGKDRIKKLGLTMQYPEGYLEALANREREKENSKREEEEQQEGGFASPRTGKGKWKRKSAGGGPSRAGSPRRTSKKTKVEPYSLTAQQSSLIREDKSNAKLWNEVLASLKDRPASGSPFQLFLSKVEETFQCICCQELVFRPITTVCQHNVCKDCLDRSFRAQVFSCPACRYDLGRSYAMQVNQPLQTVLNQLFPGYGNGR
Calls of active or inactive are those of the source. How the calls were made is not given here.
readoutName: IC50

Reference set (5 entries):
> print(dat)
                                   compound  readoutname           assayresult
1  CCCCn1c(NC(C)CC)nc2c1c(=O)[nH]c(=O)n2C (stereo unspecified)         IC50  > 43.8 µM (inactive)
2        O=C(Nc1ccc(OCc2ccccc2)cc1)c1ccccc1         IC50  > 43.8 µM (inactive)
3           Clc1ccc2c(c1)-c1ccccc1C1=NCCN12         IC50              inactive
4    Cc1cc(C)n2nc(CC(=O)NCc3ccc(F)cc3)nc2n1         IC50  > 43.8 µM (inactive)
5  CN(C)CCNC(=O)c1cccc2[nH]c(-c3ccncc3)nc12         IC50              inactive

Now examine the next entry.
input: Could you tell me which IC50 is on file for `CC(C)C(=O)Nc1nnc(SCC(=O)NC2CCCC2)s1` ?
output: > 43.8 µM (inactive)
